Assay: label from the status in PepcDB records
ENDPOINT: protein production

{"SEQ_STRING": "MSGLDPARSILQGSAEGPVIATGEALSFWGGVDPATGCVIDVHHPLHGVPLTGSILMMPSSRGSCTGSGVLLDLVLTGRGPAALVFSEPEDVLTLGALIASEMFGKPLPVL", "VALUE_REPORTED": "failed"}
{"SEQ_STRING": "MSSVFPKVAVLLAAYNGMAWIEAQLDSILKQANVCVSVFISVDTSSDGTEAWCADYAQHHVNITLLPPAGQFGGASRNFFRLIQDVDFSSFDYVAFSDQDDIWYQDKLERALSTLMSGNHDAYSSNVVAFWPDGQRILLDKAQPQVQWDHLFEAAGPGCTYVMNRPLADAFKSSLIAQWDVAQNVSLHDWYCYAFARSHGFRWFIDPAPGMDYRQHANNQVGANTGLASLITRLKKIADGWWAGQVLLIGRLTGGSETLFAGKITGTRWMFLRLAFMAGRCRRRPRDKIFFIIACLAAMLNTPEQRNNR", "VALUE_REPORTED": "failed"}
{"SEQ_STRING": "MNIKLYYVHDPMCSWCWGYKPTIEKLKQQLPGVIQFEYVVGGLAPDTNLPMPPEMQQKLEGIWKQIETQLGTKFNYDFWKLCTPVRSTYQSCRAVIAAGFQDSYEQMLEAIQHAYYLRAMPPHEEATHLQLAKEIGLNVQQFKNDMDGTLLEGVFQDQLSLAKSLGVNSYPSLVLQINDAYFPIEVDYLSTEPTLKLIRERIIENMSA", "VALUE_REPORTED": "not failed"}
{"SEQ_STRING": "MNTVFFYLQVSIKNLHDSIKNLRVSIKNLYVSIKGAGITAFLQTVKYERFEEKILMDFISNLFGRDKNQSFLEASKQGQTENVEKLLRSNKVDVNYQDAYGKTALISAADKGYRDVIGLLIESGPNLDLQDENGNTALISAAKIERGDIIDLLVKNGADLNFQDENGETALKFAVKVGYKNIADQLIDAGTDLNIQDENGETALICAADRAHRDIAELLIKAGADLNIQDNSGKTALVAATKIGHKGIVELLVNAGADLNLQDKNGNTALIYAADRGYRDIVNLLIEGGASLNIPDEAGLTALMFSAQTGRKDIVELLIKAGADINIEDKNNKTAADLAAEVGFEEIVDLLTSVRTYSSS", "VALUE_REPORTED": "failed"}
{"SEQ_STRING": "MLYFEDLRPGQLFLSAEHTLSEQEIIAFARQFDPQPFHTDPEAARQTFFNGLAASGWHTSSLSMRLVAESELGRAANGLIGMQIDKMRWPQPSRPGDTLQVEVEVLDKRRSSSQPGFGVVKVSWTTRNQRGETAMQLECAIWLQCRSKAEAAAPELAGAK", "VALUE_REPORTED": "failed"}

Can you give me protein production for all of these, one by one?
1. MPEEALKTYEELLELEKRIGNKREIGLTLANLAIIKDELGNVEEAIKLMEEARKIFEELKDENNYLISLIDLAHFKYELGEYEEAMKLIREVLRNPVDKEIEVNARLVESEIYAGERKYKEAAISLRNALQRSEDDEELFSLVFDSLTEFLEGLFNESRLEHHHHHH
2. ERRAPRKGNTLYVYGEDMTPTLLRGAFSPFGNIIDLSMDPPRNCAFVTYEKMESADQAVAELNGTQVESVQLKVNIARKQPMLD
3. MGHHHHHHSHSSFQTMDQMVSNMRNYMQKLERNFGQLSVDPNGHSFCSSSVMTYSKIGDEP
4. MKLPRLWPTALSLLCSLALAQAPASPGTTAQGPAPAAVAGLAALPGGTRLVCAGTSLWTLSTSAAPQRLPLPEDCQGLRVSPSGKVVLVSGRASVTVWRLDAEQQSDGQLWRRVALPEPARRVAFLNDSTLLLAGARGLEQLDLNTQARTLLRPGAVTGLATAPDGRRAVMGDGSRVQLVNVADGAVLSGVRCEVACPLQDVQFSRDQRGAVVQAGPVLYALREGHPATAVLRGAEGAMGFPLPDGGVWVLTAGRLERRDAQTGRREGVLRPEGVSGPAAWTPEGGLLYVAGRELVELDKTGQEVGRTALP

1: not failed; 2: not failed; 3: failed; 4: failed
